Target: recombinant human B1 receptors (Homo sapiens, UniProt P46663)
Construct: host or cells: CHO (CHO-B1)
Assay: Functional assay: antagonist potency by cytosolic calcium measurement (plate reader fluorimeter) in CHO-B1 cells, agonist LysDABK
Assay type: cell-based
Conditions: CHO-B1 cells, inhibition of LysDABK (EC80)-evoked [Ca2+]i elevation; read-out: B1 func.
Each entry below carries its reported IC50.

{"columns": ["Smiles Code", "Result"],
 "data": [
  ["N#Cc1cc2cc(Cl)ccc2n1-c1ccc(CNC(=O)C2(NC(=O)c3cncc(C(F)(F)F)c3)CC2)cc1", "< 0.02 µM"]
]}

Request: For the compound shown here, COc1cc(C(=O)NC2(C(=O)NCc3ccc(-n4c(-c5nnn(C)n5)c(Cl)c5ccccc54)cc3F)CC2)on1 , give the reported IC50.
Result: < 0.02 µM

Request: For the compound shown here, Cc1nc(-c2c(Cl)c3ccccc3n2-c2ccc(CNC(=O)C3(NC(=O)c4cc(C)n(C)n4)CC3)cc2)no1 , give the reported IC50.
Result: 0.02 to 0.1 µM

Request: For the compound shown here, Cc1nc(-c2c(F)c3cc(F)ccc3n2-c2ccc(CNC(=O)C3(NC(=O)C(F)(F)F)CC3)cc2)no1 , give the reported IC50.
Result: < 0.02 µM

Request: For the compound shown here, COc1cc(C(=O)NC2(C(=O)NCc3ccc(-n4c(C#N)cc5cc(Cl)ccc54)cc3)CC2)on1 , give the reported IC50.
Result: 0.02 to 0.1 µM

---

Target: human recombinant bradykinin B1 receptor (Homo sapiens, UniProt P46663)
Construct: host or cells: CHO cells, clone hB1-A5
Sequence (P46663 whole entry): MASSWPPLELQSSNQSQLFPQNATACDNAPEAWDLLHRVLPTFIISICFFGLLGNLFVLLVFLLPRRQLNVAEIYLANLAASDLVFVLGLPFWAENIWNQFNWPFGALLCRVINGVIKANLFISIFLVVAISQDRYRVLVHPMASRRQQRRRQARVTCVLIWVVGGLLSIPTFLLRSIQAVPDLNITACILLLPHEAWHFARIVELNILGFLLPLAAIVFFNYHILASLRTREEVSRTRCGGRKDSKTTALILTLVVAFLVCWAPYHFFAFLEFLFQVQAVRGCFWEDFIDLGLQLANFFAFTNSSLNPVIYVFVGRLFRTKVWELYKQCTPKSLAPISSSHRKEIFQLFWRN
Test: Human recombinant bradykinin B1 receptor competitive radioligand binding
Details: hB1 expressed in CHO cells, [3H]-[Des-Arg10] Kallidin radioligand; read-out: B1 binding
Each entry below carries its reported Ki.

{"columns": ["Smiles Code", "Ki"],
 "data": [
  ["Cc1nc(-c2c(Cl)c3cc(Cl)ccc3n2-c2ccc(CNC(=O)C3(NC(=O)c4ccnc(F)c4)CC3)cc2)no1", "< 0.02 µM"],
  ["Cc1nc(-c2cc3cc(F)ccc3n2-c2ccc(CNC(=O)C3(NC(=O)c4cncc(C(F)(F)F)c4)CC3)c(F)c2)no1", "< 0.02 µM"],
  ["CSc1ccc(C(=O)NC2(C(=O)NCc3ccc(-n4c(-c5noc(C)n5)c(Cl)c5ccccc54)cc3)CC2)s1", "< 0.02 µM"],
  ["Cc1nc(-c2c(Cl)c3ccccc3n2-c2ccc(CNC(=O)C3(NC(=O)c4cccc(F)c4)CC3)c(F)c2)no1", "< 0.02 µM"],
  ["Cc1cnc(C(=O)NC2(C(=O)NCc3ccc(-n4c(-c5nnn(C)n5)c(Cl)c5ccccc54)cc3)CC2)cn1", "< 0.02 µM"],
  ["COc1cc(C(=O)NC2(C(=O)NCc3ccc(-n4c(-c5noc(C)n5)c(F)c5cc(F)ccc54)cc3)CC2)on1", "< 0.02 µM"],
  ["Cc1ccc(C(=O)NC2(C(=O)NCc3ccc(-n4c(-c5noc(C)n5)c(Cl)c5ccccc54)cc3)CC2)c(Cl)n1", "< 0.02 µM"],
  ["Cc1nc(-c2c(Cl)c3ccccc3n2-c2ccc(CNC(=O)C3(NC(=O)c4cc(C5CC5)on4)CC3)c(F)c2)no1", "< 0.02 µM"]
]}

Request: Param readout = Ki; param system = human recombinant bradykinin B1 receptor (Homo sapiens, UniProt P46663); param query = COC(=O)c1c(Cl)c2c(F)cccc2n1-c1ccc(CNC(=O)C2(NC(=O)c3cc(OC)no3)CC2)cc1 ; response: value
Result: < 0.02 µM

Request: Param readout = Ki; param system = human recombinant bradykinin B1 receptor (Homo sapiens, UniProt P46663); param query = COc1ccc2c(c1)c(Cl)c(-c1nc(C)no1)n2-c1ccc(CNC(=O)C2(NC(=O)c3cccnc3F)CC2)cc1 ; response: value
Result: < 0.02 µM

Request: Param readout = Ki; param system = human recombinant bradykinin B1 receptor (Homo sapiens, UniProt P46663); param query = Cn1nnc(-c2c(Cl)c3ccccc3n2-c2ccc(CNC(=O)C3(NC(=O)c4cccnc4Cl)CC3)cc2)n1 ; response: value
Result: < 0.02 µM
